Provenance of the data: ChEMBL document CHEMBL1949521

experiment: AUC in dog at 1 mg/kg, iv; format: ADME, organism-based, Canis lupus familiaris, Plasma; design: dose 1 mg/kg, route intravenous; settings: plasma
Experimental readout: AUC
Answer by giving the amount and then stating its unit.

Exam item: So what does the record say about AUC for CNC(=O)[C@H]1CC[C@H](Nc2ncc3nc(Nc4c(F)cc(F)cc4F)n([C@H]4CCOC4)c3n2)CC1 ?
Marked response: 1.4 µM·h

----------
assay: Clearance in rat at 2 mg/kg, iv; assay type: ADME, organism-based; design: dose 2 mg/kg, route intravenous; conditions: in vivo
Listed below: clearance values for each entry.
State just the number; it will be interpreted in mL/min/kg.

Input smiles: O[C@H]1CC[C@H](Nc2ncc3nc(Nc4ccc(F)cc4F)n(C4CCOCC4)c3n2)CC1
clearance (mL/min/kg): 21
--
Input smiles: O[C@H]1CC[C@H](Nc2ncc3nc(Nc4ccc(F)cc4F)n(C4CCCC4)c3n2)CC1
clearance (mL/min/kg): 59

Exam item: Request the reported clearance associated with CC(C)Nc1ncc2nc(Nc3c(F)cc(F)cc3F)n([C@H]3CC[C@@H](C(N)=O)CC3)c2n1
Marked response: 25

Exam item: For the molecule CC(C)Nc1ncc2nc(Nc3c(F)cc(F)cc3F)n([C@H]3CC[C@@H](C(=O)N4CCOCC4)CC3)c2n1 , what clearance is on record?
Marked response: 26

Exam item: Please look up its clearance: O[C@H]1CC[C@H](Nc2ncc3nc(Nc4c(F)cc(F)cc4F)n([C@H]4CCOC4)c3n2)CC1
Marked response: 39

Exam item: clearance for CNC(=O)[C@H]1CC[C@H](Nc2ncc3nc(Nc4c(F)cc(F)cc4F)n([C@H]4CCOC4)c3n2)CC1 ?
Marked response: 39

Exam item: Report clearance for N[C@H]1CC[C@H](Nc2ncc3nc(Nc4ccc(F)cc4F)n(C4CCCC4)c3n2)CC1 please.
Marked response: 66

Exam item: For CC(C)Nc1ncc2nc(Nc3c(F)cc(F)cc3F)n([C@H]3CC[C@@H](C(=O)NC4CC4)CC3)c2n1 , what is its reported clearance?
Marked response: 31

----------
molecular target: Mitogen-activated protein kinase 14 (Homo sapiens, UniProt Q16539); assay: Inhibition of p38alpha using myelin basic protein as substrate preincubated for 15 mins prior ATP addition measured after 60 mins by scintillation counting
Sequence (Q16539 whole entry): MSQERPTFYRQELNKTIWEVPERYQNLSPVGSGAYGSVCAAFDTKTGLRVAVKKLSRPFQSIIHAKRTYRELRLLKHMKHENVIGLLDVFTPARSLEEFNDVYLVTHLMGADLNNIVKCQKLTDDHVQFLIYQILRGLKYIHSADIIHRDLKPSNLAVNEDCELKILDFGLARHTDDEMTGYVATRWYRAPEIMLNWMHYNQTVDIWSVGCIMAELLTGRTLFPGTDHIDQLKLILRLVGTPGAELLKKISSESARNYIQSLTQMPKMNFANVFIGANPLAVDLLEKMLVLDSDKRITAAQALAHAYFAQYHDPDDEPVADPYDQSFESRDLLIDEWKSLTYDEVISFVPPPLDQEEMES
pIC50: −log10 of the molar value.
Quick rule: pIC50 of at least 6 means TRUE, below that means FALSE.

Input smiles: O[C@H]1CC[C@H](Nc2ncc3nc(Nc4ccc(F)cc4F)n(C4CCOCC4)c3n2)CC1
Group label: FALSE

Exam item: Given the entry O[C@H]1CC[C@H](Nc2ncc3nc(Nc4ccc(F)cc4F)n(C4CCCC4)c3n2)CC1 , answer whether its pIC50 meets or surpasses 6.
Marked response: TRUE

Exam item: Please indicate if the recorded pIC50 for CC(C)Nc1ncc2nc(Nc3c(F)cc(F)cc3F)n([C@H]3CC[C@@H](C(N)=O)CC3)c2n1 meets or exceeds 6.
Marked response: TRUE

Exam item: Identify whether the reported pIC50 of the following compound is 6 or greater: CC(C)Nc1ncc2nc(Nc3c(F)cc(F)cc3F)n([C@H]3CC[C@@H](C(=O)N4CCOCC4)CC3)c2n1
Marked response: FALSE

Exam item: # check: pIC50 of O[C@H]1CC[C@H](Nc2ncc3nc(Nc4c(F)cc(F)cc4F)n([C@H]4CCOC4)c3n2)CC1 is greater than or equal to 6
Marked response: FALSE

Exam item: hey, is pIC50 for this one >= 6? CC(C)(O)[C@H]1CC[C@@H](c2ncc3nc(Nc4ccc(F)cc4F)n(C4CCOCC4)c3n2)C1
Marked response: FALSE

Exam item: Form field: pIC50 at least 6? Entry: CC(C)(O)[C@H]1CC[C@H](Nc2ncc3nc(Nc4ccc(F)cc4F)n(C4CCCC4)c3n2)CC1
Marked response: TRUE
